Settings: 1×PBS buffer (pH 7.4), 1.0% DMSO, 24-hour incubation at ambient temperature, maximum theoretical 100 μM; second value of the cell
Measured pH 7 solubility by item
Hi! Could you send only the number? It should be in μM, unit omitted.

In the examples that follow, each entry is paired with its recorded pH 7 solubility.
Which pH 7 solubility is listed for C[C@@H](CC(=O)O)OC(=O)N(c1nn(CC(F)(F)F)c2c(-c3ccc(C#CC(C)(C)S(C)(=O)=O)nc3[C@H](Cc3cc(F)cc(F)c3)NC(=O)Cn3nc(C(F)(F)F)c4c3C(F)(F)[C@@H]3C[C@H]43)ccc(Cl)c12)S(C)(=O)=O ?
9

What do you have for CC(C)(C#Cc1ccc(-c2ccc(Cl)c3c(N(C(=O)CN4CCNCC4)S(C)(=O)=O)nn(CC(F)(F)F)c23)c([C@H](Cc2cc(F)cc(F)c2)NC(=O)Cn2nc(C(F)(F)F)c3c2C(F)(F)[C@@H]2C[C@H]32)n1)S(C)(=O)=O ?
7

What do you have for C[C@@H](CNC(=O)N(c1nn(CC(F)(F)F)c2c(-c3ccc(C#CC(C)(C)S(C)(=O)=O)nc3[C@H](Cc3cc(F)cc(F)c3)NC(=O)Cn3nc(C(F)(F)F)c4c3C(F)(F)[C@@H]3C[C@H]43)ccc(Cl)c12)S(C)(=O)=O)OP(=O)(O)O ?
14

Now look at this entry.
Which pH 7 solubility is listed for C[C@H](O)[C@H](C)OC(=O)N(c1nn(CC(F)(F)F)c2c(-c3ccc(C#CC(C)(C)S(C)(=O)=O)nc3[C@H](Cc3cc(F)cc(F)c3)NC(=O)Cn3nc(C(F)(F)F)c4c3C(F)(F)[C@@H]3C[C@H]43)ccc(Cl)c12)S(C)(=O)=O ?
3
